Target: c-Kit (Homo sapiens)
Sequence (P10721 26-976): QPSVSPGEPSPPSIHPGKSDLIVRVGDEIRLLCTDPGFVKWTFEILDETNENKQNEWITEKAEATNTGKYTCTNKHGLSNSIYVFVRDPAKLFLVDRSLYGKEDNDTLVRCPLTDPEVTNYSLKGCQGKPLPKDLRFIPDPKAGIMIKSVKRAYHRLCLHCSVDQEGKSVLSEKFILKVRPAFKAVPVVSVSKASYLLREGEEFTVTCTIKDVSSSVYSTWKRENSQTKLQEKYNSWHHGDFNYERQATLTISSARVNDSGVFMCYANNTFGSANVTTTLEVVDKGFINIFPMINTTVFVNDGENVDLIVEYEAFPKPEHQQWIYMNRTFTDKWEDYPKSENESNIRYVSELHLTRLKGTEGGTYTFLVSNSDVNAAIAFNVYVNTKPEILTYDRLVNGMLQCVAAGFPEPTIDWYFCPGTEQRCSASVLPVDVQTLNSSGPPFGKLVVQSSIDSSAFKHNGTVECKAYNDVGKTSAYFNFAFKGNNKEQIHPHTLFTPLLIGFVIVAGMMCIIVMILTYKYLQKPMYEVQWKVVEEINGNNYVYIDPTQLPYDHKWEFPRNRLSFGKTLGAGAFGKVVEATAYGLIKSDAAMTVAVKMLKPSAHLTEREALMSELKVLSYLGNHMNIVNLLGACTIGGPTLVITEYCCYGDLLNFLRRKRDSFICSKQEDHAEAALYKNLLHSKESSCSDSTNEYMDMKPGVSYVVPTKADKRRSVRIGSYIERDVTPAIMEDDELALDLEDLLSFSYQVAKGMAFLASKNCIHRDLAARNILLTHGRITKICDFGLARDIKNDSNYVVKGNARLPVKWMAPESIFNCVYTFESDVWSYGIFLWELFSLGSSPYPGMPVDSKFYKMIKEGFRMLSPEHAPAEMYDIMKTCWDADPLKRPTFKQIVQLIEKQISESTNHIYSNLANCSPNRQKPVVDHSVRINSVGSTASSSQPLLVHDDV
Test: c-Kit biochemical assay (AlphaScreen)
property: IC50

Completed entries (count: 8):
compound="Oc1ccc(/C=C/c2cc(-c3nc4ccccc4[nH]3)n[nH]2)cc1 [Entry 47]" result="50 to 500 nM"
compound="CCN1CCN(c2ccc3nc(-c4cc(-c5ccc(NC(=O)Nc6ccc(F)cc6F)cc5)[nH]n4)[nH]c3c2)CC1 [Entry 29]" result="< 50 nM"
compound="COc1cc(NC(=O)Nc2ccc(-c3cc(-c4nc5ccc(N6CCN(C)CC6)cc5[nH]4)n[nH]3)cc2)cc(OC)c1 [Entry 11]" result="< 50 nM"
compound="CN1CCN(c2ccc3[nH]c(-c4cc(-c5ccc(NC(=O)Nc6cc(F)cc(F)c6)cc5)[nH]n4)nc3c2)CC1 [Entry 19]" result="< 50 nM"
compound="Cc1ccc(NC(=O)Nc2ccc(-c3cc(-c4ccc(N5CCN(C)CC5)cc4)[nH]n3)cc2)cc1C [Entry 17]" result="< 50 nM"
compound="CN1CCN(c2ccc3[nH]c(-c4cc(-c5ccc(NC(=O)Nc6cccc(F)c6)cc5)[nH]n4)nc3c2)CC1 [Entry 22]" result="< 50 nM"
compound="COc1cc(/C=C/c2cc(/C=C/c3ccc(F)cc3)n[nH]2)ccc1O [Entry 44]" result="50 to 500 nM"
compound="CN1CCN(c2cccc(-c3cc(-c4ccc(NC(=O)Nc5ccc(Cl)c(C(F)(F)F)c5)cc4)[nH]n3)c2)CC1 [Entry 40]" result="50 to 500 nM"

Q: Give the value of IC50 reported for the following: CN1CCN(c2ccc3nc(-c4cc(-c5ccc(NC(=O)Nc6cccc(Br)c6)cc5)[nH]n4)[nH]c3c2)CC1 [Entry 7]
A: < 50 nM

Q: Name the recorded IC50 of the compound listed here: CN1CCN(c2ccc3[nH]c(-c4cc(-c5ccc(NC(=O)Nc6cccc(C(F)(F)F)c6)cc5)[nH]n4)nc3c2)CC1 [Entry 15]
A: < 50 nM

Q: Output measured IC50 for this item: CN1CCN(c2ccc3[nH]c(-c4cc(-c5ccc(NC(=O)Nc6cccc(Cl)c6)cc5)[nH]n4)nc3c2)CC1 [Entry 10]
A: < 50 nM

Q: Supply recorded IC50 for CN1CCN(c2ccc3nc(-c4cc(-c5ccc(NC(=O)Nc6ccc(C(F)(F)F)cc6)cc5)[nH]n4)[nH]c3c2)CC1 [Entry 13] here.
A: < 50 nM

Q: Quote IC50 reported for CN1CCN(c2ccc3[nH]c(-c4cc(-c5ccc(NC(=O)Nc6ccc(F)c(C(F)(F)F)c6)cc5)[nH]n4)nc3c2)CC1 [Entry 8] please.
A: < 50 nM

Q: Identify measured IC50 associated with O=C(Nc1ccccc1)Nc1ccc(-c2cc(-c3ccccc3)n[nH]2)cc1 [Entry 76]
A: 500 to 5000 nM

Q: Dear colleague, please send me the reported IC50 for Oc1ccc(/C=C/c2cc(-c3cccc(-c4ccccc4)c3)[nH]n2)cc1 [Entry 78] when you can.
A: 500 to 5000 nM

----------
Target: UniProt P10721
Experiment: c-Kit biochemical assay (AlphaScreen)
property: IC50

Worked set:
smilesnotation=CN1CCN(c2ccc(-c3cc(/C=C/c4ccc(O)cc4)[nH]n3)cc2)CC1 property=IC50 result="50 to 500 nM"
smilesnotation=CN1CCN(c2ccc3[nH]c(-c4cc(-c5ccc(NC(=O)Nc6cc(C(F)(F)F)cc(C(F)(F)F)c6)cc5)[nH]n4)nc3c2)CC1 property=IC50 result="< 50 nM"
smilesnotation=CN1CCN(c2ccc3[nH]c(-c4cc(-c5ccc(NC(=O)Nc6ccc(F)cc6)cc5)[nH]n4)nc3c2)CC1 property=IC50 result="< 50 nM"

As a next step, examine the molecule that follows.
Q: Report IC50 for COc1cc(/C=C/c2cc(/C=C/c3ccccc3)[nH]n2)ccc1O
A: < 50 nM
